Target: conarachin (undenatured) (Arachis hypogaea)
Sequence: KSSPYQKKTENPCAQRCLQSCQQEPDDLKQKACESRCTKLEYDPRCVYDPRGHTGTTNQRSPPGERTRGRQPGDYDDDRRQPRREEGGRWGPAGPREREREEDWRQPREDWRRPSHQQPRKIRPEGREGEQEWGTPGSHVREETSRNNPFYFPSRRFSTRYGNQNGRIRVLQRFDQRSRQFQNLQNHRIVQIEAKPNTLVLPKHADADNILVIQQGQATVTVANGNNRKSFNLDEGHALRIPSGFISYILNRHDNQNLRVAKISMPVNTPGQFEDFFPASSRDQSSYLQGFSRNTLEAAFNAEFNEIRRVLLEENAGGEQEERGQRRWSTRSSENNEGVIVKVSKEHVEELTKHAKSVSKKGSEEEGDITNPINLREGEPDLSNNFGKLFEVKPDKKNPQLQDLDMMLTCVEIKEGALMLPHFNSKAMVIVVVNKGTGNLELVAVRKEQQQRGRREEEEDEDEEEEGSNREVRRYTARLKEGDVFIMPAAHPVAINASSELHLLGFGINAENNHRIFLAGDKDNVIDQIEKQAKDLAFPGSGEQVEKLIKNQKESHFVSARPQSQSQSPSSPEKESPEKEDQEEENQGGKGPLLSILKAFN
Test: SPR
Conditions: all T replaced by 5-tryptaminocarbonyl-dU (TrpdU); printed as P_M_NES01 in table; same SPR buffer
parameter: Kd (nM)

[[record]]
biosequence = "GGATTCCGTGCCGTGCTAAAGGCCTCCCCGTTTATAGGCAGGTATCCGGCAGACTACTGGGCTTGCGACAAATGAAAAAAAAAAAAAAAAAAAAAAAA [P_NES_M01 (CONA170TEDAR2R8m1)]"
parameter = "Kd"
unit_symbol = "nM"
val = 0.0388

